# Method notes: in vitro
# Condition details: human, hela cells, % viability
Below, each entry is listed alongside its reported viability at 28.5 h, 10 µM.
Quantity kind: viability at 28.5 h, 10 µM (%)

- CCOC(=O)C1CCN(S(=O)(=O)c2ccccc2C#N)CC1: 93.6
- Cc1noc(C)c1C(=O)N1CCC(c2ccncc2)CC1: 110
- CC(C)c1ccc(S(=O)(=O)NCCC2CCN(Cc3ccccc3)CC2)cc1: 94.5
- Cc1noc(CN2CCN(c3ccc4nnc(C(F)(F)F)n4n3)CC2)n1: 93.3
- CC1CN(c2cc(CO)c(F)cn2)CC2(CCOC2)O1 (centres unmarked): 93.8
